Data credit: the supplement of paper PMC11061612

# Tested on: NCI-H1155 (Non-Small Cell Lung Carcinoma);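 further: after 72 h of two-drug dosing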
# test-protocol: Bliss excess, mean over the matrix (fraction); higher = more synergy
So I've got a bunch of compounds here, and I need their Bliss excess values.

Hello, I would appreciate it if you could give Bliss excess for each entry below.
1. Cc1cc2ncnn2cc1Nc1ncc2c(n1)n(C1CCOCC1)c(=O)n2C [AZD7648] + CCN(CCO)CCCOc1ccc2c(Nc3cc(CC(=O)Nc4cccc(F)c4)[nH]n3)ncnc2c1 [AZD2811] (first compound max 10 µM, 7x7, partner max 1 µM)
2. CCc1c2c(nc3ccc(O)cc13)-c1cc3c(c(=O)n1C2)COC(=O)[C@]3(O)CC [SN-38] + O=C(c1cc(Cc2n[nH]c(=O)c3ccccc23)ccc1F)N1CCN(C(=O)C2CC2)CC1 [Olaparib] (first compound max 0.3 µM, 7x7, partner max 10 µM)
3. CN(C)CCCOc1ccc(-c2ccc3ncc4c(c3c2)n(C2CCOCC2)c(=O)n4C)cn1 [AZD0156] + C=CCn1c(=O)c2cnc(Nc3ccc(N4CCN(C)CC4)cc3)nc2n1-c1cccc(C(C)(C)O)n1 [AZD1775] (first compound max 1 µM, partner max 1 µM)
4. C[C@@H](c1ccc2nccn2c1)n1nnc2ncc(-c3cnn(C)c3)nc21 [Savolitinib] + CC1(C)CCC(CN2CCN(c3ccc(C(=O)NS(=O)(=O)c4ccc(NCC5CCOCC5)c([N+](=O)[O-])c4)c(Oc4cnc5[nH]ccc5c4)c3)CC2)=C(c2ccc(Cl)cc2)C1 [Venetoclax] (first compound max 1 µM, 7x7, partner max 1 µM)

1: 0.0796; 2: 0.0532; 3: -0.0213; 4: -0.0365
